Target: human CMBL (Homo sapiens)
Sequence (Q96DG6 whole entry): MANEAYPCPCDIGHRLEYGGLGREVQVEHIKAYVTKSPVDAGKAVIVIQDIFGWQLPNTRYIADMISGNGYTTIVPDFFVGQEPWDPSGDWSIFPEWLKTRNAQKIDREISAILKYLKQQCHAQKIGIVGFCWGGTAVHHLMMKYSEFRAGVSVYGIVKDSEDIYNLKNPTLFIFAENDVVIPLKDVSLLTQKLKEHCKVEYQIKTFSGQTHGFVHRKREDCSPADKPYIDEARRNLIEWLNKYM
Format: biochemical
Observable: Inhibition of OM-hydrolyzing activity

# Compound, Experimental result
data = [
    ("O=C(O)CN(CCN(CC(=O)O)CC(=O)O)CC(=O)O [EDTA]", "no inhibition"),
    ("CNC(=O)Oc1ccc2c(c1)[C@]1(C)CCN(C)[C@@H]1N2C [eserine]", "no inhibition"),
    ("O=[N+]([O-])c1ccc(OP(=O)(O)Oc2ccc([N+](=O)[O-])cc2)cc1 [BNPP, Bis-p-nitrophenylphosphate]", "~50%"),
    ("O=S(=O)(F)Cc1ccccc1 [PMSF, Phenylmethylsulfonyl fluoride]", "no inhibition"),
]

###

Assay: OM hydrolysis in human intestinal microsomes, kinetic analysis
Assay type: in vitro ADME
Details: human, intestinal microsomes, pH 7.4
Observable: Km (µM)
Write it as a number; the unit µM goes unstated.

### Prompt For the molecule shown here, CCCc1nc(C(C)(C)O)c(C(=O)OCc2oc(=O)oc2C)n1Cc1ccc(-c2ccccc2-c2nnn[nH]2)cc1 , give the reported Km.
### Response 236

###

Experiment: OM hydrolysis in human liver cytosol, kinetic analysis
Assay type: in vitro ADME
Conditions: human, liver cytosol, pH 7.4
Observable: Km (µM)
Write it as a number; the unit µM goes unstated.

### Prompt For the molecule shown here, CCCc1nc(C(C)(C)O)c(C(=O)OCc2oc(=O)oc2C)n1Cc1ccc(-c2ccccc2-c2nnn[nH]2)cc1 , give the reported Km.
### Response 160

###

Assay: OM hydrolysis in human intestinal cytosol, kinetic analysis
Format: in vitro ADME
Conditions: human, intestinal cytosol, pH 7.4
Observable: Km (µM)
Write it as a number; the unit µM goes unstated.

### Prompt For the compound shown here, CCCc1nc(C(C)(C)O)c(C(=O)OCc2oc(=O)oc2C)n1Cc1ccc(-c2ccccc2-c2nnn[nH]2)cc1 , give the reported Km.
### Response 193

###

Experiment: OM hydrolysis in human liver microsomes, kinetic analysis
Type: in vitro ADME
Conditions: human, liver microsomes, pH 7.4
Observable: Km (µM)
Write it as a number; the unit µM goes unstated.

### Prompt For the molecule shown here, CCCc1nc(C(C)(C)O)c(C(=O)OCc2oc(=O)oc2C)n1Cc1ccc(-c2ccccc2-c2nnn[nH]2)cc1 , give the reported Km.
### Response 481

Data provenance: paper PMC2852926
